Give TGI for every item shown.
- Test system: MDA-MB-435
- test.name: NCI tumour cell line growth inhibition, 48 h

# annotated cases, reported TGI shown
{"compound": "O=C1C=C(Br)C(=O)C12CCc1ccccc12 (stereo unspecified)", "assayed.system": "MDA-MB-435", "TGI": "31.8 µM"}
{"compound": "O=C(CN1CCN(Cc2ccccc2)CC1)N1CCCn2c1nc1ccccc1c2=O", "assayed.system": "MDA-MB-435", "TGI": "> 100 µM"}

For every item in the list below, what is its measured TGI?
1. O=c1c(SSc2coc3cc(F)ccc3c2=O)coc2cc(F)ccc12
2. CCOC(=O)/C(=C\c1ccc(N(C)C)cc1)S(=O)(=O)C(F)(F)C(F)(F)C(F)(F)C(F)(F)F
3. CCOC(=O)C(CO)c1nc2c([nH]c1=O)c(=O)n(C)c(=O)n2C (stereo unspecified)
4. CNc1ccc(-c2nc3cc(C)ccc3o2)cc1

1: 36.3 µM; 2: > 100 µM; 3: > 100 µM; 4: > 100 µM
